- tgt: T1, CAPRIN-1 protein expressed on the membrane surface of human cancer cells (human, UniProt Q14444 2-709)
- T1 sequence (looked up): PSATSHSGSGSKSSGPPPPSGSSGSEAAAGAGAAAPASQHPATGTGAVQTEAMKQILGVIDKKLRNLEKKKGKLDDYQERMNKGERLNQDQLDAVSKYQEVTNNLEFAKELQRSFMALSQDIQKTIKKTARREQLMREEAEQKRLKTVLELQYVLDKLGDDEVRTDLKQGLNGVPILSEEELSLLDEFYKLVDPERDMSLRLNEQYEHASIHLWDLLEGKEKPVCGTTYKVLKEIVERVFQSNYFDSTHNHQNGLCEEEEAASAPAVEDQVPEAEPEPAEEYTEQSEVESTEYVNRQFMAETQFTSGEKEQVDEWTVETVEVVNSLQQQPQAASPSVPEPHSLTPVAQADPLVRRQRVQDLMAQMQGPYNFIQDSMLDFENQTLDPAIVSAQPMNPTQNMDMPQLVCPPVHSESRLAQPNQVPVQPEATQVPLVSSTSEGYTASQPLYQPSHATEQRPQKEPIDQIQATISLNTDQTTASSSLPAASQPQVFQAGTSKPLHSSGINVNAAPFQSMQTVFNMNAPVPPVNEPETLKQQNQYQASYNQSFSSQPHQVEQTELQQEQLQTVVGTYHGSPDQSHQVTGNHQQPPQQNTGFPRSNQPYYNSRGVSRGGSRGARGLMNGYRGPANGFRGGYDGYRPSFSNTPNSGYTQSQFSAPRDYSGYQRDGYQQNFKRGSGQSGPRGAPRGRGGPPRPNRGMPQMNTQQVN
- assay-details: cell-based or functional assay
recorded-endpoint: ADCC cytotoxic activity (51Cr release) on 22Rv1

1) humanized antibody #8 (antibody, V domains shown) VH: QSLVESGGGLVQPGGSLRLSCAASGFSLSSHSLGWVRQAPGKGLEWIGDIRSGGSAYYANWAKGRFTISRTSSKNTVYLQMNSLRAEDTAVYFCTRTNGPSDLTNRLDLWGQGTLVTVSS VL: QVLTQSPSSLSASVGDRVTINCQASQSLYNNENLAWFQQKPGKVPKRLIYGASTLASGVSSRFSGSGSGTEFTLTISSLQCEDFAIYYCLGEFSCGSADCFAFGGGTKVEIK | ≥ 38%

# context switch: different binder, same ADCC cytotoxic activity (51Cr release) on 22Rv1
## Task Field request: ADCC cytotoxic activity (51Cr release) on 22Rv1 | item: human-rabbit chimeric anti-CAPRIN-1 antibody (antibody, V domains shown) VH: QSLEESGGRLVTPGTPLTLTCTASGFSLSSHSLGWVRQAPGKGLEWIGDIRSGGSAYYANWAKGRFTISRTSTTVALKMTSLTTEDTATYFCTRTNGPSDLTNRLDLWGQGTLVTVSS VL: QVLTQTPSSVSAAVGGTVTINCQASQSLYNNENLAWFQQKPGQPPKRLIYGASTLASGVSSRFKGSGSGTQFTLTIGDVQCDDAAIYYCLGEFSCGSADCFAFGGGTEVVVK
## Result ≥ 38%

Reference source: patent US20160297889A1
